# Test system: SK-OV-3 ovarian
# Test Details: NCI tumour cell line growth inhibition, 48 h
Property Name: log10 of TGI (log10 of the value in µM)

# Compound, log10 of TGI
data = [
    ("CCC12C=CCN3CC[C@]4(C(=C(C(=O)OC)[C@@H]1Nc1ccn(C5OC(COC(C)=O)C(OC(C)=O)C5OC(C)=O)c(=O)n1)Nc1ccccc14)C32 (stereo not given in full)", 0.98),
    ("C#C[C@]1(O)CC[C@H]2[C@@H]3CC=C4c5nc(Nc6ccc(OC)cc6OC)sc5CC[C@]4(C)[C@H]3CC[C@@]21C", 0.85),
    ("CCCCc1ccc(Nc2nc(Cl)c3[nH]cnc3n2)cc1", 2.00),
    ("COC(=O)[C@]1(c2cc3ccccc3n2S(=O)(=O)c2ccccc2)CC2CCC1NC2 (stereo not given in full)", 1.52),
    ("Cc1cccc(NC(=O)CC2C(=O)Nc3ccccc3S2(=O)=O)c1C (stereo not given)", 1.58),
]

* * *

# Tested on: MALME-3M melanoma
# Test Details: NCI tumour cell line growth inhibition, 48 h
# maps each entry to its TGI
Property Name: TGI

# Compound, Property Name, Assay Result
measured = [
    ("COc1ccc(OC)c(C2CCc3cnc4nc(N)nc(N)c4c3C2)c1 (configuration not stated)", "TGI", "> 100 µM"),
    ("COc1cccc(/C=N/n2c(-c3ccccc3)n[nH]c2=O)c1", "TGI", "> 100 µM"),
    ("CCOC(=O)c1c(C)c2c(n1C)CSc1cc(S(=O)(=O)c3ccccc3)c(=O)[nH]c1-2", "TGI", "> 100 µM"),
    ("C=CC(=O)Nc1cc2c(Nc3ccc(OCc4ccccn4)c(Cl)c3)ncnc2cc1OCCN1CCOCC1", "TGI", "42.1 µM"),
    ("COc1ccc(-c2c(N)[n+]([O-])c3cc(C)c(C)cc3[n+]2[O-])cc1OC", "TGI", "> 100 µM"),
    ("CC[n+]1[b-](C(C)(C)C)n(/N=C(\\C)C(C)(C)C)[b-](C(C)(C)C)[n+]1CC", "TGI", "> 100 µM"),
    ("O=S(=O)(Nc1ccccc1S(=O)(=O)c1ccccc1)c1ccccc1", "TGI", "> 100 µM"),
    ("COc1ccc(/C=N/NC(=O)O)cc1", "TGI", "> 100 µM"),
    ("CN(C)CC1(C)CC/C(=C\\c2ccc3c(c2)OCO3)C1=O (configuration not stated)", "TGI", "> 100 µM"),
    ("C[n+]1c2ccccc2c(NC(CCC(N)=O)C(=O)O)c2ccccc21 (configuration not stated)", "TGI", "> 100 µM"),
    ("Cc1ccc(S(=O)(=O)C2=c3ncccc3=C3C(=O)c4ccccc4C(=O)C32)cc1 (configuration not stated)", "TGI", "> 100 µM"),
    ("CCCCc1ccc(Nc2nc(Cl)c3[nH]cnc3n2)cc1", "TGI", "42.2 µM"),
    ("CNC(=O)OCc1nc(S(C)=O)n(C)c1COC(=O)NC (configuration not stated)", "TGI", "> 100 µM"),
    ("O=C1c2c(Br)sc(Br)c2[C@H]2NC(=S)O[C@@H]12", "TGI", "29.8 µM"),
    ("O=C(Oc1ccc([N+](=O)[O-])cc1)N1CCC(C(O)(c2ccc3c(c2)OCO3)c2ccc3c(c2)OCO3)CC1", "TGI", "> 100 µM"),
    ("CCN(C)S(=O)(=O)Nc1cccc(Nc2ncnc3cc(NC(=O)CCl)ccc23)c1Cl", "TGI", "5.62 µM"),
    ("CC(=O)Oc1ccc(-c2cc3ccccc3oc2=O)cc1OC(C)=O", "TGI", "> 100 µM"),
    ("CN/N=C(\\C)CC(=O)Nc1cccc(Cl)c1C", "TGI", "> 100 µM"),
    ("CN(C)CCCC1(c2ccc(F)cc2)OCc2cc(-c3ccc4cc[nH]c4c3)ccc21 (configuration not stated)", "TGI", "3.32 µM"),
    ("O=C1C(Nc2ccccn2)=C(I)C(=O)c2ncccc21", "TGI", "2.54 µM"),
    ("COc1cc(OC)c(/C=N/N=C(\\N)NO)c(OC)c1", "TGI", "> 100 µM"),
    ("CC(=O)CN=C(C)NNc1ccc([N+](=O)[O-])cc1[N+](=O)[O-]", "TGI", "> 100 µM"),
]

* * *

# Test system: MDA-N
# Test Details: NCI tumour cell line growth inhibition, 48 h
Property Name: TGI

# Compound, Assay Result
records = [
    ("CS(=O)(=O)C(=Cc1ccccc1Cl)S(C)(=O)=O", "> 46.4 µM"),
    ("CNC(=O)N(CCC#N)CCN(CCN(C(=O)NC)c1ccccc1)C(=O)NC", "> 100 µM"),
    ("COC(=O)C(Cc1ccccc1)NS(=O)(=O)c1ccc(-c2c3nc(c(-c4ccc(S(=O)(=O)NC(Cc5ccccc5)C(=O)OC)cc4)c4ccc([nH]4)c(-c4ccc(S(=O)(=O)NC(Cc5ccccc5)C(=O)OC)cc4)c4nc(c(-c5ccc(S(=O)(=O)NC(Cc6ccccc6)C(=O)OC)cc5)c5ccc2[nH]5)C=C4)C=C3)cc1 (centres undefined)", "> 100 µM"),
    ("Cn1cc(-c2ccc(CCOC3CCCCO3)cc2)c2c(C#N)cccc21 (centres undefined)", "> 100 µM"),
]

* * *

# maps each entry to its TGI
# Tested on: M19-MEL melanoma
# Test Details: NCI tumour cell line growth inhibition, 48 h
Property Name: TGI (µM)

# Compound, Tgt, Inequality Symbol, Assay Result
records = [
    ("Cc1oc2c(c1C(=O)c1ccccc1)C(=O)c1ccccc1C2=O", "M19-MEL melanoma", "=", 4.93),
    ("CC(C)(C)C1CCC2c3c([nH]c4ccccc34)C3C(=O)N(c4ccc(Br)cc4)C(=O)C3C2C1 (centres undefined)", "M19-MEL melanoma", "=", 33.2),
    ("O=C(Nc1cc(C(F)(F)F)ccc1Cl)C(=O)C(C(=O)c1ccc2ccccc2c1)C1OC(=O)c2ccccc21 (centres undefined)", "M19-MEL melanoma", "=", 46.4),
    ("COC(=O)C1CCc2c(OC)ccc(OC)c2C1=O (centres undefined)", "M19-MEL melanoma", ">", 100),
]

* * *

# Tested on: SK-MEL-2 melanoma
# Test Details: NCI tumour cell line growth inhibition, 48 h; in the data active means GI50 below about 0.43 µM; inactive means the rest
Outcome codes: T for active, F for inactive

# Compound, Tgt, Group Label
rows = [
    ("C#C[C@]1(O)CC[C@H]2[C@@H]3CC=C4c5nc(Nc6ccc(OC)cc6OC)sc5CC[C@]4(C)[C@H]3CC[C@@]21C", "SK-MEL-2 melanoma", "F"),
    ("Cc1cc(NC(=O)CCc2ccc(N3C(N)=NC(N)=NC3(C)C)cc2)ccc1S(=O)(=O)F", "SK-MEL-2 melanoma", "F"),
    ("COc1ccc(OC)c(-c2nc3sccn3c2/C=C2/C(=O)Nc3ccccc32)c1", "SK-MEL-2 melanoma", "F"),
    ("Nc1cc(C(F)F)c(-c2nc(N3[C@@H]4CC[C@H]3COC4)nc(N3[C@@H]4CC[C@H]3COC4)n2)cn1", "SK-MEL-2 melanoma", "T"),
    ("COC(=O)/C(=C/N1CCN(C(=O)c2ccco2)C1=S)C(C)=O", "SK-MEL-2 melanoma", "F"),
    ("NC(N)=NC(N)=NCCc1ccccc1", "SK-MEL-2 melanoma", "F"),
    ("Cc1cc(N2CCN(C)CC2)nc(NC2CCCC(Nc3ccnc4cc(Cl)ccc34)C2)n1 (stereo unspecified)", "SK-MEL-2 melanoma", "F"),
    ("C/C=C(/C)C(=O)OC1C=C(CO)C(=O)C(OC(=O)/C(C)=C\\C)C1C(C)C (stereo unspecified)", "SK-MEL-2 melanoma", "F"),
    ("O=C(Oc1ccc([N+](=O)[O-])cc1)N1CCC(C(O)(c2ccc3c(c2)OCO3)c2ccc3c(c2)OCO3)CC1", "SK-MEL-2 melanoma", "F"),
    ("Clc1ccc2c(NCCNc3nc(-c4ccccc4)cc(-c4ccccc4)n3)ccnc2c1", "SK-MEL-2 melanoma", "F"),
    ("CCN(C)S(=O)(=O)Nc1cccc(Nc2ncnc3cc(NC(=O)CCl)ccc23)c1Cl", "SK-MEL-2 melanoma", "F"),
    ("CCOC(=O)c1cc(C(=O)c2cc(OC)cc(OC)c2)n2ncccc12", "SK-MEL-2 melanoma", "F"),
    ("O=C(Nc1ccc(-n2cc(-c3ccncc3)c(-c3ccc(Cl)c(O)c3)n2)cc1)c1cc(Cl)cc(Cl)c1", "SK-MEL-2 melanoma", "F"),
    ("O=C(N/N=C/c1cc2ccccc2c2ccccc12)c1cc(O)c(O)c(O)c1", "SK-MEL-2 melanoma", "F"),
    ("Clc1ccc2c(NCCCN3CCN(c4nc(-n5ccnc5)nc5ccccc45)CC3)ccnc2c1", "SK-MEL-2 melanoma", "F"),
    ("COc1ccc2[nH]cc(/C=C3\\C(=O)Nc4ccccc43)c2c1", "SK-MEL-2 melanoma", "F"),
]
